test system: CP325; assay: qHTS profiling for inhibitors of Plasmodium falciparum proliferation (AID 504749); also: nearly all actives have a fitted effect of over 60% in size; details: P. falciparum in erythrocytes, SYBR Green DNA, 72 h; series mostly up to 28.7 µM
Inconclusive results are not listed. Active and inactive are the calls of the source. Calls follow the shape of the dose curve; as a rule, active = well fitted inhibition curve with a large enough effect; inconclusive = small, poorly fitted or top-dose-only effect; inactive = flat fitted curve, though single readings scatter. Where a SMILES comes first, the peptide text is derived from it. [ ]: non-standard residue; d: D form. pGlu = O=C1CC[C@@H](C(=O)O)N1; Thz = O=C(O)[C@@H]1CSCN1
Valid outcomes are listed here; reply with one: 1.0 for active, 0.0 for inactive

Prompt line: # outcome recorded in this test, key = CCCC(=O)OC[C@@H](OC(=O)CCC)[C@@H](OC(=O)CCC)[C@H](Cn1c2nc(=O)[nH]c(=O)c-2nc2cc(C)c(C)cc21)OC(=O)CCC
Response line: 0.0

Prompt line: Hi, do you know how [O-][n+]1ccccc1SSc1cccc[n+]1[O-] came out in this test?
Response line: 1.0

Prompt line: What did this assay record as the result for C=CC(N)CCC(=O)O (configuration not stated) ?
Response line: 0.0

Prompt line: Which outcome was entered for the compound Nc1c(CC(=O)O)cccc1C(=O)c1ccc(Br)cc1 in this test?
Response line: 0.0

Prompt line: Test call, this compound: CC1(C)C[C@@H]1C(=O)N/C(=C\CCCCSC[C@H](N)C(=O)O)C(=O)O
Response line: 0.0

Prompt line: Please let me know the test result on file for O=C(O)[C@H](O)[C@@H](O)[C@H](O)[C@H](O)CO .
Response line: 0.0

Prompt line: Name the outcome recorded for C#C[C@]1(O)CC[C@H]2[C@@H]3CCc4cc(O)ccc4[C@H]3CC[C@@]21C in the assay.
Response line: 0.0

Prompt line: State the result this test recorded for Cc1cc(O)c2ccccc2c1O .
Response line: 0.0

Prompt line: // outcome(item) with item = Cc1ccccc1CNc1ncnc2c1ncn2C1OC(CO)C(O)C1O (configuration not stated)
Response line: 0.0

Prompt line: Call for entry Oc1c(Br)cc(Br)c2cccnc12 :
Response line: 0.0

Prompt line: Hey, what did the test say about C=C(Nc1ccc(OCC)cc1)Nc1ccc(OCC)cc1 ?
Response line: 0.0

Prompt line: Dear all, I need the recorded test outcome for CCCSc1ccc2nc(NC(=O)OC)[nH]c2c1 , thank you.
Response line: 0.0

Prompt line: State the result this test recorded for Clc1ccccc1-c1nc(-c2ccncc2)no1 .
Response line: 0.0

Prompt line: So what was the verdict on COc1cc(/C=C/C(=O)N2CCN(CC(=O)N3CCCC3)CC2)cc(OC)c1OC in this test?
Response line: 0.0

Prompt line: What did this assay record as the result for CN1[C@@H]2CC[C@H]1CC(OC(=O)C(CO)c1ccccc1)C2 (some centres not stated) ?
Response line: 0.0

Prompt line: Give the logged outcome of this assay for the following compound: C[S+](CC[C@H](N)C(=O)O)C[C@H]1O[C@@H](n2cnc3c(N)ncnc32)[C@H](O)[C@@H]1O (some centres not stated)
Response line: 0.0

Prompt line: Please indicate how the test categorized Cc1ccc(C(=O)c2ccc(CC(=O)O)n2C)cc1 .
Response line: 0.0

Prompt line: Could you check what this test reported for COc1cc(CNC(=O)CCCC/C=C/C(C)C)ccc1O ?
Response line: 0.0

Prompt line: Can you look up the reported call for Cc1ccc(O)c(-n2nc3ccccc3n2)c1 for me?
Response line: 0.0

Prompt line: Recorded test call requested for COC(=O)C1=C(C)NC(C)=C(C(=O)OCC(C)C)C1c1ccccc1[N+](=O)[O-] (configuration not stated)
Response line: 1.0

Prompt line: Call for entry O=C1CC[C@@H](C(=O)N2CSC[C@H]2C(=O)O)N1 ([pGlu]-[Thz]-OH) :
Response line: 0.0

Prompt line: Field: outcome | Entry: CC1(C)[C@@H](O)CC[C@]2(C)[C@H]3C(=O)C=C4[C@@H]5C[C@@](C)(C(=O)O)CC[C@]5(C)CC[C@@]4(C)[C@]3(C)CC[C@@H]12
Response line: 0.0
